- System: Chenopodium album
- assay_explanation: Test Example 3: herbicidal effect test by treatment of dry field farming soil (one day after seeding)
- Type: in vivo
- experimental_conditions: 120 g/10a active ingredient, evaluated 14 days after treatment
- Experimental: This test was conducted in a double system per one agent solution concentration area, and the herbicidal rates (%) were determined by the following equation (Math. 1) on 14 days after the treatment with the agents. […] Pots with a size of 36 cm^2 were filled with a dry field farming soil (alluvium). […] The herbicidal effects were evaluated by the same standard as that in Test Example 1 on 14 days after the treatment with the agents. […]
Reported herbicidal rate, Chenopodium album is given for each of the following compounds.
Express it in %; write the number only.

compound	value_units	result_value
Cc1c(Cc2ccccc2NS(=O)(=O)C(F)(F)F)c(=O)on1CCc1ccccc1	%	0
CCc1c(Cc2ccccc2NS(=O)(=O)C(F)(F)F)c(=O)on1C(C)C	%	40
CCCC(C)n1oc(=O)c(Cc2ccccc2NS(=O)(=O)C(F)(F)F)c1C (stereo not shown)	%	60

// switching to the query compound
Query: Specify reported herbicidal rate, Chenopodium album for the compound shown: CCCCC(c1ccccc1)n1oc(=O)c(Cc2ccccc2N(S(=O)(=O)C(F)(F)F)S(=O)(=O)C(F)(F)F)c1C (stereo not shown)
Response: 50
